- measurement protocol: Clearance in rat liver microsomes at 1 uM measured after 60 mins by LC-MS/MS analysis
- Format: ADME, Microsome
- study conditions: read-out: CLH
observation type: microsomal CLint at 1 µM (µL/min/mg)
# number only, unit µL/min/mg dropped from output

I am curious: what microsomal CLint at 1 µM value has been reported for N#Cc1c(N2CCOCC2)sc(-c2nc[nH]n2)c1-c1ccc(NC(=O)Nc2ccccc2Cl)cc1 ?
32.8

---

- System: U-87 MG
- measurement protocol: Antiproliferative activity against human U87MG cells harboring PTEN deletion assessed as reduction in cell viability after 3 days by CellTiter-Glo luminescence assay
- Assay type: functional, cell-based, U-87MG ATCC
- study conditions: 72 h
observation type: IC50 (µM)
Unit µM implied. Number only.

Item under review: N#Cc1c(N2CCOCC2)sc(-c2nc[nH]n2)c1-c1ccc(NC(=O)N/N=C/c2cccc(O)c2)cc1 . Reported IC50?
13

How about this compound: N#Cc1c(N2CCOCC2)sc(-c2nc[nH]n2)c1-c1ccc(NC(=O)Nc2ccc(F)cc2)cc1
3.35

Do the same for N#Cc1c(N2CCOCC2)sc(-c2nc[nH]n2)c1-c1ccc(NC(=O)Nc2ccccc2F)cc1 please
3.98

What do you have for N#Cc1c(N2CCOCC2)sc(-c2nc[nH]n2)c1-c1ccc(NC(=O)Nc2ccccc2Cl)cc1 ?
2.86
